biological target: Feline_OSMR_hlgG1_Fc (feline); assay: SPR Biacore
Sequence (chain, as listed by the source limits assumed, form in doubt): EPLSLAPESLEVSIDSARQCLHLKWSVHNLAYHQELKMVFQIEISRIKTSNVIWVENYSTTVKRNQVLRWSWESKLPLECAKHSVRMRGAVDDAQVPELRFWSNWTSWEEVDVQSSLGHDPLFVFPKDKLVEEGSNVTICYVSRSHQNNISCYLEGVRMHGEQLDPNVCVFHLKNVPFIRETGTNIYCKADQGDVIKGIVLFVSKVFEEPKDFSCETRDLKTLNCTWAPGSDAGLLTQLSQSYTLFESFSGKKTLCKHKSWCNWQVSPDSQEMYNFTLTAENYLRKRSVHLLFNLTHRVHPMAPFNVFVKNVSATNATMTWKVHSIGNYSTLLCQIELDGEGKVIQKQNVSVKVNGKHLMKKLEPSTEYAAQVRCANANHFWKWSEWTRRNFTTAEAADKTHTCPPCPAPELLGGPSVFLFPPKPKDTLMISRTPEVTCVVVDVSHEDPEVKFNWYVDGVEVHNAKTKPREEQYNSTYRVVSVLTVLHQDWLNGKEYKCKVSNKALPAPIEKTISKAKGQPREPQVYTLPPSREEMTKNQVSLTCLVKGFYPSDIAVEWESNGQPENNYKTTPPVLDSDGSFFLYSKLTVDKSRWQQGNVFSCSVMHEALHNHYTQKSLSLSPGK
Answer NOT MET if koff is under 0.0003 s⁻¹, and MET if it is 0.0003 s⁻¹ or more.

# binder, label
measured = [
    ("Mu_10F07_VL (SEQ ID NO: 41)_T97A (antibody, V domains shown) VH: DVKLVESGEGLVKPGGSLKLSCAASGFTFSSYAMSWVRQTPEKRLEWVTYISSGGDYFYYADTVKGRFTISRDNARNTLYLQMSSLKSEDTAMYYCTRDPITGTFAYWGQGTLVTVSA VL: DIQMTQTTSSLSASLGDRVTISCRASQDITNYLNWYQQKPDGTVKLLIYYTSTLHSGVPSRFSGSGSGTDFSLTISNLEQEDIATYFCQQGHMLPWAFGGGTKLEIKR", "NOT MET"),
    ("Mu_19F07_VH (SEQ ID NO: 47)_Y33A (antibody, V domains shown) VH: EVKLVESEGGLVQPGSSMKLSCTASGFTFSDYAMAWVRQVPEKGLEWVANINYDGSSTYYLDSLKSRFIISRDNAKNILYLQMSSLKSEDTATYYCARGLTWDFDVWGTGTTVTVSS VL: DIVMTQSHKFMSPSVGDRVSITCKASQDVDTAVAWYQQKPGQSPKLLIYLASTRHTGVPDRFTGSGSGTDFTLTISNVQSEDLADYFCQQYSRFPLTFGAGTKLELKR", "NOT MET"),
    ("Mu_02D09_VH (SEQ ID NO: 31)_Y32A (antibody, V domains shown) VH: EVQLVESGGGLVKPGGSLTLSCAASGFTFSDAGMHWLRQAPEKGLEWVAYISSGSRAVFFADTVKGRFTISRDNAKNTLFLQMTSLRSDDTAMYYCARDRYDGRGFAYWGQGTLVTVSA VL: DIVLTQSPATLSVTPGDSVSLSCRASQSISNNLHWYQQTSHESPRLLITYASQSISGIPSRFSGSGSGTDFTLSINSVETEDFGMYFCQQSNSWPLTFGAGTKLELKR", "MET"),
    ("Mu_09E09_VH (SEQ ID NO: 35)_Y57A (antibody, V domains shown) VH: DVKLVESGEGLVKPGGSLKLSCAASGFTFSSYAMSWVRQTPEKRLEWVAYISSGGDAIYYADTVKGRFTISRDNARNTLYLQMSSLKSEDTAMYYCTRDPITGTFAYWGQGTLVTVSA VL: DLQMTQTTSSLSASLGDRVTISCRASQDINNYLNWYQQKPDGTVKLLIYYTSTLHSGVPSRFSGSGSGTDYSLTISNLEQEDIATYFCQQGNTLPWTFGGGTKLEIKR", "MET"),
    ("Canine_OSM (ligand) SCSDKYPELLGQLQKQADFMQHTNTLLDLYIRSQGLDKNGLKEHCRERPGAFPSKDALQRLSRRVFLRTLDTTLGQVLLRLAALEQDIPKAQDLEMLSGVKLNIRGFKNNIHCMAQLLPGSSETTEPTPTSPGASPSPTPTLDTFQRRLEGCRFLHGYHRFMRSVGQVFREWGKSLSRSRR", "MET"),
    ("Mu_02D09_VH (SEQ ID NO: 31)_R104A (antibody, V domains shown) VH: EVQLVESGGGLVKPGGSLTLSCAASGFTFSDYGMHWLRQAPEKGLEWVAYISSGSRAVFFADTVKGRFTISRDNAKNTLFLQMTSLRSDDTAMYYCARDRYDGAGFAYWGQGTLVTVSA VL: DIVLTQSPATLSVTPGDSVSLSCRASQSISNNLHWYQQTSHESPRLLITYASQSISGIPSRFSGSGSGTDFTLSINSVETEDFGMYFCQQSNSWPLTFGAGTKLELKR", "NOT MET"),
    ("Mu_19F07_VH (SEQ ID NO: 47)_Y59A (antibody, V domains shown) VH: EVKLVESEGGLVQPGSSMKLSCTASGFTFSDYYMAWVRQVPEKGLEWVANINYDGSSTAYLDSLKSRFIISRDNAKNILYLQMSSLKSEDTATYYCARGLTWDFDVWGTGTTVTVSS VL: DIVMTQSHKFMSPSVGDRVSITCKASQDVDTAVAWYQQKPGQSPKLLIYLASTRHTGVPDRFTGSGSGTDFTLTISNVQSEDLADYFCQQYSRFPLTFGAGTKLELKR", "NOT MET"),
    ("Mu_02D09_VH (SEQ ID NO: 31)_D62A (antibody, V domains shown) VH: EVQLVESGGGLVKPGGSLTLSCAASGFTFSDYGMHWLRQAPEKGLEWVAYISSGSRAVFFAATVKGRFTISRDNAKNTLFLQMTSLRSDDTAMYYCARDRYDGRGFAYWGQGTLVTVSA VL: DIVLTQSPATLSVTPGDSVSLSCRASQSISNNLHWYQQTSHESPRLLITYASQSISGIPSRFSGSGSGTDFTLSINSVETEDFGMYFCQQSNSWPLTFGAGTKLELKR", "NOT MET"),
    ("Mu_19F07_VL (SEQ ID NO: 49)_F94A (antibody, V domains shown) VH: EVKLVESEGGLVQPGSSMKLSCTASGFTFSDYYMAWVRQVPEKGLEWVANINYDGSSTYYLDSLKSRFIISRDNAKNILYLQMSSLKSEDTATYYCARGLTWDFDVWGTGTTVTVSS VL: DIVMTQSHKFMSPSVGDRVSITCKASQDVDTAVAWYQQKPGQSPKLLIYLASTRHTGVPDRFTGSGSGTDFTLTISNVQSEDLADYFCQQYSRAPLTFGAGTKLELKR", "NOT MET"),
    ("Mu_09E09_VH (SEQ ID NO: 35)_D99A (antibody, V domains shown) VH: DVKLVESGEGLVKPGGSLKLSCAASGFTFSSYAMSWVRQTPEKRLEWVAYISSGGDYIYYADTVKGRFTISRDNARNTLYLQMSSLKSEDTAMYYCTRAPITGTFAYWGQGTLVTVSA VL: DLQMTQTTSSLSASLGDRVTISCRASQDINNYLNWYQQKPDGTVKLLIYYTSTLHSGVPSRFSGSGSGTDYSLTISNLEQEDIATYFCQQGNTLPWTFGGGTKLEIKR", "MET"),
]

Provenance of the data: patent US20220177594A1
